Give Area Under Peak for every item shown.
system_under_test: T1, FLAG-huIL-17A (human, UniProt Q16552 24-155)
T1 construct: also called FLAG-huL-17A; FLAG-IL-17A
T1 sequence: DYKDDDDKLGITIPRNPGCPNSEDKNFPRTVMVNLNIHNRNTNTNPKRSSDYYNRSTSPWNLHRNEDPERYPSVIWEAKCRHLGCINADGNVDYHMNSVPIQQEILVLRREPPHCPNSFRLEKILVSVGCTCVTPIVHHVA
protocol_description: ECL (Origen), antibody titrated against biotinylated antigen; area under the curve
One number for each entry.

Guide cases for Area Under Peak, answers given:
binder	Area Under Peak
rat 23E12 (antibody, V domains shown, Parental rat monoclonal antibody (hybridoma PTA-7740)) VH: QVQLKESGPGLVQPSQTLSLTCTVFGFSLTNNGVTWVRQPPGKGLEWIAEVSSGGSTDYNSALKSRLSISRDTSKSQVFLRMNSLQTEDTAIYFCARQEVFTGLLDYWGQGVMVTVSS VL: DIQMTQSPASLSASLGETVTIQCQASEDIYSGLAWYHQKPGKSPQLLILGASRLHDGVPSRFSGSGSGIEYSLKINNMQTEDEGIYFCQQGLKYPPTFGGGTKLELKR	285000
rat 16C10 (antibody, rat IgG1, V domains shown, also called 16C10C; antibody 16C10) VH: QVELRESGPGLVQPSQTLSLTCTVSGFSLPSHSVSWIRQPPGKGLEWMGIIWNNGGTDYNSAFKSRLTISRDTSKSQVFLKMNSLQTEDTAMYFCARNMYITDYYYENYFMDAWGQGASVTVSS VL: DIVMTQSPSSLAVSIGETVTLNCKSSQSLLFSENQKNYLAWYQHKSGQSPKLLVYWTSTRQSGVPDRFMGSGSGTDFTLTISSVQAEDLAIYYCQQSYYTPYTFGAGTKLELKR	286000

Consider now this further binder.
Lookup: What value of Area Under Peak has been recorded for this entry: chimeric 16C10 (antibody, human IgG1, kappa, V domains shown, also called chimeric 16C10C) VH: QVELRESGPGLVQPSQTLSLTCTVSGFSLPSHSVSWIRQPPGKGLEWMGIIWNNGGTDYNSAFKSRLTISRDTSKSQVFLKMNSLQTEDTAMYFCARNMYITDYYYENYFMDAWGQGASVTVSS VL: DIVMTQSPSSLAVSIGETVTLNCKSSQSLLFSENQKNYLAWYQHKSGQSPKLLVYWTSTRQSGVPDRFMGSGSGTDFTLTISSVQAEDLAIYYCQQSYYTPYTFGAGTKLELKR
Found: 346000

Origin of measurements: patent US20090175881A1
